- TARGET DESC: ABCB1 (Homo sapiens)
- MEASUREMENT NOTES: JC-1 efflux inhibition dose response, flow cytometry, Jurkat-DNR cells
- CONDITION DESCRIPTION: read-out: IC50 ABCB1 (efflux inhibition of JC-1 substrate); Jurkat-DNR cells over-expressing ABCB1; averages of two to four replicates; listed as XR9051
EXPERIMENTAL READOUT: IC50
Answer by giving the amount and then stating its unit.

The reported value for COc1cc2c(cc1OC)CN(CCc1ccc(NC(=O)c3cccc(/C=c4\[nH]c(=O)/c(=C/c5ccccc5)n(C)c4=O)c3)cc1)CC2 [Compound 2, reference compound] in terms of IC50 is 600 nM

* * *

The entries below are paired with their reported pEC50.
- Tested on: ABCB1 over-expressing Jurkat-DNR cells
- MEASUREMENT NOTES: Chemoreversal assay: potentiation of daunorubicin (DNR) killing
- Format: cell-based
- CONDITION DESCRIPTION: constant 100 nM DNR, varied inhibitor dose, read-out: CR50 ABCB1
Please report pEC50 as the negative decimal logarithm of the molar concentration, giving only the number.

Solved cases below.
COc1ccc(-c2cc3nc(-c4ccco4)cc(N4CCN(C(=O)c5ccoc5)CC4)n3n2)cc1 [Compound 57]; 5.24
CC(=O)N1CCN(c2cc(-c3ccco3)nc3cc(-c4cccc(Cl)c4)nn23)CC1 [Compound 87]; 7.10

For reference, reported pEC50 for CN(C)C(=O)CCSC(SCCC(=O)O)c1cccc(/C=C/c2ccc3ccc(Cl)cc3n2)c1 (stereo not shown) [Compound 5, reference compound] stands at 4.69

The recorded pEC50 for entry COc1cccc(-c2cc(N3CCN(C(=O)c4ccoc4)CC3)n3nc(-c4ccccc4)cc3n2)c1 [Compound 65] equals 6.74

Item: COc1ccccc1-c1cc2nc(-c3ccccc3)cc(N3CCN(C(=O)c4ccoc4)CC3)n2n1 [Compound 34] | pEC50: 6.35

So for O=C(c1ccoc1)N1CCN(c2cc(-c3ccco3)nc3cc(-c4cccc(Cl)c4)nn23)CC1 [Compound 53] , the logged pEC50 turned out to be 6.28

The molecule listed as O=C(c1ccoc1)N1CCN(c2cc(-c3ccco3)nc3cc(-c4ccccc4)nn23)CC1 [Compound 1] shows pEC50 equal to 6.26

* * *

- TARGET DESC: ABCG2 (Homo sapiens, UniProt Q9UNQ0)
- Sequence (Q9UNQ0 1-655): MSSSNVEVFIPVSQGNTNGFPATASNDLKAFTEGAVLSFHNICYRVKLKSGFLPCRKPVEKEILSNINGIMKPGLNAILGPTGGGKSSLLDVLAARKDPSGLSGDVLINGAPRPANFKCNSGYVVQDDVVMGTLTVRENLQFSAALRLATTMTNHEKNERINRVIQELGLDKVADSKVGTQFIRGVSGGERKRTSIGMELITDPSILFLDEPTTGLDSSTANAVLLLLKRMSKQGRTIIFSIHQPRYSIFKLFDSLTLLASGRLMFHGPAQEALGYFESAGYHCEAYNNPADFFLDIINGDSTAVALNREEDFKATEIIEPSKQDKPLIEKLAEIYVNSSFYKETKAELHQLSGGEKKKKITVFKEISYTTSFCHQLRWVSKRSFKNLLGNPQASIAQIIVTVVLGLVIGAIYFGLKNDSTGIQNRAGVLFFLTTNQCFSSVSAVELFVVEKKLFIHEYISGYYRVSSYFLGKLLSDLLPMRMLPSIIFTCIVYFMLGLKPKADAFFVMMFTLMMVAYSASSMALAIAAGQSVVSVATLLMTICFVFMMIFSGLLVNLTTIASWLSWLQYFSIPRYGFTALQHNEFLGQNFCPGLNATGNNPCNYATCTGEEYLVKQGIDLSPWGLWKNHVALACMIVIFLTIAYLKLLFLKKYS
- MEASUREMENT NOTES: JC-1 efflux inhibition dose response, flow cytometry, Ig-MXP3 cells
EXPERIMENTAL READOUT: pEC50
# pEC50 = -log10(concentration in molar units)

Short answer for O=C(c1ccoc1)N1CCN(c2cc(-c3ccco3)nc3cc(-c4ccccc4)nn23)CC1 : pEC50 was 6.89

* * *

- TARGET DESC: ABCB1 (Homo sapiens, UniProt P08183)
- Sequence (P08183 whole entry): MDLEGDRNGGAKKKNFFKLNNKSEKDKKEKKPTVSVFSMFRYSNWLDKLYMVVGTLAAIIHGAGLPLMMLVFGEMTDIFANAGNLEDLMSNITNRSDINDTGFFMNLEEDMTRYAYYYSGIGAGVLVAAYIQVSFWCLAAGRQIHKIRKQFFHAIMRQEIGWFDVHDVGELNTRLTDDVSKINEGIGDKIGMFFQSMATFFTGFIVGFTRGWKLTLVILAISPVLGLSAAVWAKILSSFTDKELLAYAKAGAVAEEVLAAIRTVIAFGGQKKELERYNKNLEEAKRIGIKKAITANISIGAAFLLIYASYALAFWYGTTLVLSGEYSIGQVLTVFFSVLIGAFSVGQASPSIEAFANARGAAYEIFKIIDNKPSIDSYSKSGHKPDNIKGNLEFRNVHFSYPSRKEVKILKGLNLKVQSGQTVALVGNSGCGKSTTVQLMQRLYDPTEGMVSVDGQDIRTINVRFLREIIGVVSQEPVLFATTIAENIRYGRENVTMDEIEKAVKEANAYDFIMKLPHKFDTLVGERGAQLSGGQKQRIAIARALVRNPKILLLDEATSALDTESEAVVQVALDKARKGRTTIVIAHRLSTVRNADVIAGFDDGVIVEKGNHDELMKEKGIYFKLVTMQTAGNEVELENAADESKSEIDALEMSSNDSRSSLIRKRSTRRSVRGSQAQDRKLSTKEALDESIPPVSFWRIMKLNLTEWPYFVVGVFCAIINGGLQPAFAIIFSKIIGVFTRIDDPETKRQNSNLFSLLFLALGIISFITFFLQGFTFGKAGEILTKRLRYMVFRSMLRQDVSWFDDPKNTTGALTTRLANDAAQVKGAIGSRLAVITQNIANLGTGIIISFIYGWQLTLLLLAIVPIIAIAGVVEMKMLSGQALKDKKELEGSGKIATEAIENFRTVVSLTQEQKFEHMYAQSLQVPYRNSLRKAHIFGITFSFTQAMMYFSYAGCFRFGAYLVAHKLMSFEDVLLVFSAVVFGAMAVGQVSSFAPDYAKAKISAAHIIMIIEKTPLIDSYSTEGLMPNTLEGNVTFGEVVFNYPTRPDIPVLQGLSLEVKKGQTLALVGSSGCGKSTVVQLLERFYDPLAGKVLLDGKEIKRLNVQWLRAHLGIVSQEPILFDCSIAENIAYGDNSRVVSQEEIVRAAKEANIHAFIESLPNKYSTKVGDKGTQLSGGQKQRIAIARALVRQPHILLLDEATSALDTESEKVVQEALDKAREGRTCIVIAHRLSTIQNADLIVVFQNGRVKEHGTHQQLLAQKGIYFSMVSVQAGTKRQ
- MEASUREMENT NOTES: JC-1 efflux inhibition dose response, flow cytometry, Jurkat-DNR cells
- CONDITION DESCRIPTION: IC50 ABCB1 (efflux inhibition of JC-1 substrate), Jurkat-DNR cells over-expressing ABCB1; averages of two to four replicates
EXPERIMENTAL READOUT: pIC50
Reminder that pIC50 means the negative base-10 logarithm of the concentration expressed in mol/L.

COc1ccccc1-c1cc2nc(-c3ccco3)cc(N3CCN(C(=O)c4ccoc4)CC3)n2n1; 5.25
COc1cccc(-c2cc3nc(-c4ccccc4)cc(N4CCN(C(=O)c5ccco5)CC4)n3n2)c1; 5.32
CC(=O)N1CCN(c2cc(-c3ccccc3)nc3cc(-c4cccc(Cl)c4)nn23)CC1; 5.25
O=C(c1ccccc1Cl)N1CCN(c2cc(-c3ccccc3)nc3cc(-c4cccc(Cl)c4)nn23)CC1; 5.73
O=C(c1ccccc1)N1CCN(c2cc(-c3ccccc3)nc3cc(-c4cccc(F)c4)nn23)CC1; 5.36

pIC50 recorded for this compound, O=C(c1ccoc1)N1CCN(c2cc(-c3cccc(F)c3)nc3cc(-c4ccccc4)nn23)CC1 , is 5.15

Lookup result for Cc1cccc(-c2cc3nc(-c4ccccc4)cc(N4CCN(C(=O)c5ccco5)CC4)n3n2)c1 ; measured pIC50: 5.41

Value of pIC50 reported for the compound COc1cccc(-c2cc(N3CCN(C(=O)c4ccoc4)CC3)n3nc(-c4ccccc4)cc3n2)c1 is 4.78

* * *

- Test system: ABCG2 over-expressing Ig-MXP3 cells
- MEASUREMENT NOTES: Chemoreversal assay: potentiation of mitoxantrone (MTX) killing
- Format: cell-based
- CONDITION DESCRIPTION: Ig-MXP3 cells, values in nM; read-out: chemoreversal (CR50) ABCG2
EXPERIMENTAL READOUT: EC50 (nM)
Response body: numeric value in nM, unit text excluded.

Item COc1cc2c(cc1OC)CN(CCc1ccc(NC(=O)c3cccc(/C=c4\[nH]c(=O)/c(=C/c5ccccc5)n(C)c4=O)c3)cc1)CC2 [Compound 2, reference compound] was tested on ABCG2 over-expressing Ig-MXP3 cells; the reported EC50 is 650

* * *

- TARGET DESC: UniProt P08183
- MEASUREMENT NOTES: JC-1 efflux inhibition dose response, flow cytometry, Jurkat-DNR cells
- CONDITION DESCRIPTION: IC50 ABCB1 (efflux inhibition of JC-1 substrate), Jurkat-DNR cells over-expressing ABCB1; averages of two to four replicates
EXPERIMENTAL READOUT: IC50 (µM)
A number alone suffices; assume µM.

O=C(c1ccccc1)N1CCN(c2cc(-c3ccco3)nc3cc(-c4ccccc4)nn23)CC1; 5.56
O=C(C1CCCCC1)N1CCN(c2cc(-c3ccccc3)nc3cc(-c4cccc(Cl)c4)nn23)CC1; 3.31
Cc1ccc(-c2cc3nc(-c4ccco4)cc(N4CCN(C(=O)c5ccoc5)CC4)n3n2)cc1; 11.3
COc1cccc(C(=O)N2CCN(c3cc(-c4ccccc4)nc4cc(-c5cccc(Cl)c5)nn34)CC2)c1; 2.64
COc1ccc(C(=O)N2CCN(c3cc(-c4ccccc4)nc4cc(-c5cccc(Cl)c5)nn34)CC2)cc1; 2.89

IC50 measured on CC(C)(C)c1cc2nc(-c3ccco3)cc(N3CCN(C(=O)c4ccoc4)CC3)n2n1 = 3.31

* * *

- TARGET DESC: ABCB1 (Homo sapiens, UniProt P08183)
- MEASUREMENT NOTES: JC-1 efflux inhibition dose response, flow cytometry, Jurkat-DNR cells
- CONDITION DESCRIPTION: IC50 ABCB1 (efflux inhibition of JC-1 substrate), Jurkat-DNR cells over-expressing ABCB1; averages of two to four replicates
EXPERIMENTAL READOUT: IC50
Please report the result as a number followed by the unit.

O=C(c1ccoc1)N1CCN(c2cc(-c3ccco3)nc3cc(-c4cccc(-c5ccco5)c4)nn23)CC1; 3.98 µM

The reported IC50 of the molecule O=C(c1cccc(Cl)c1)N1CCN(c2cc(-c3ccccc3)nc3cc(-c4cccc(Cl)c4)nn23)CC1 was 4.19 µM

So for COc1ccc(-c2cc(N3CCN(C(=O)c4ccoc4)CC3)n3nc(-c4cccc(Cl)c4)cc3n2)cc1 , the logged IC50 turned out to be 4.12 µM

For this molecule ( O=C(c1ccoc1)N1CCN(c2cc(-c3ccccc3)nc3cc(-c4ccccc4)nn23)CC1 ), measured IC50 is 4.79 µM

// O=C(c1ccncc1)N1CCN(c2cc(-c3ccccc3)nc3cc(-c4cccc(Cl)c4)nn23)CC1 : IC50 value = 1.16 µM

So, O=C(c1ccccc1)N1CCN(c2cc(-c3ccccc3)nc3cc(-c4cccc(Cl)c4)nn23)CC1 ? Its IC50 was 3.42 µM

Field IC50 (entry Cc1ccc(-c2cc(N3CCN(C(=O)c4ccoc4)CC3)n3nc(-c4ccccc4)cc3n2)o1 ) reads 0.68 µM

Where do the numbers come from? From patent US9056111B1.
